system: MC116; test: cells; format: functional, cell-based; conditions: Homo sapiens;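 note: growth inhibition of MC116 cells, read out with a cell viability assay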
Description: SANGER: Inhibition of human MC116 cell growth in a cell viability assay.
pIC50: −log10 of the molar value.
Reported Endpoint: pIC50

Observe how each entry below is paired with its result.
compound="O=c1cc(-c2cccc3c2Sc2ccccc2S3)oc(N2CCOCC2)c1 [KU-55933]" tgt=MC116 reported_endpoint=pIC50 measured="< 5.00"
compound="CN(c1ncccc1CNc1nc(Nc2ccc3c(c2)CC(=O)N3)ncc1C(F)(F)F)S(C)(=O)=O [PF-00562271]" tgt=MC116 reported_endpoint=pIC50 measured="< 5.59"
compound=CC(=O)O[C@@H]1[C@@H](OC(C)=O)[C@@H](O)[C@H](Oc2c(-c3ccc(O)cc3)oc3cc(O)cc(O)c3c2=O)O[C@H]1C tgt=MC116 reported_endpoint=pIC50 measured="< 5.00"
compound="COc1cc(F)c(F)c(Nc2ccc(I)cc2F)c1NS(=O)(=O)C1(CC(O)CO)CC1 (stereo unspecified)" tgt=MC116 reported_endpoint=pIC50 measured="< 5.30"
compound="CC1=C2C[C@H]3[C@@H](CC=C4C[C@@H](O)CC[C@@]43C)[C@@H]2CC[C@]12O[C@@H]1C[C@H](C)CN[C@H]1[C@H]2C [CYCLOPAMINE]" tgt=MC116 reported_endpoint=pIC50 measured="< 4.80"

Okay, now this compound:
Output pIC50 of O=C(NOCC1CC1)c1ccc(F)c(F)c1Nc1ccc(I)cc1Cl [CI-1040]
< 5.00

----------
system: A-427; assay: cells; type: functional, cell-based, Homo sapiens; conditions: Homo sapiens, A-427;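 note: growth inhibition of human A-427 cells, read out by a cell viability assay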
Description: SANGER: Inhibition of human A427 cell growth in a cell viability assay.
pIC50: −log10 of the molar value.
Reported Endpoint: pIC50

Here are 2 compounds together with their reported answers.
record_smiles=O=C(c1cc(Cc2n[nH]c(=O)c3ccccc23)ccc1F)N1CCN(C(=O)C2CC2)CC1 measured="< 5.30"
record_smiles=CC(=O)O[C@@H]1[C@@H](OC(C)=O)[C@@H](O)[C@H](Oc2c(-c3ccc(O)cc3)oc3cc(O)cc(O)c3c2=O)O[C@H]1C measured="< 5.00"

As a next step, examine the compound that follows.
State, for A-427, measured pIC50 of the compound listed here: O=C1N=C(NCc2cccs2)S/C1=C\c1ccc2ncccc2c1
< 5.30

----------
tested on: RVH-421; assay: cells; type: functional, cell-based, Homo sapiens; conditions: Homo sapiens, RVH-421
Description: SANGER: Inhibition of human RVH-421 cell growth in a cell viability assay.
Reported Endpoint: IC50

Worked examples follow.
record_smiles=Cn1cc(C2=C(c3ccc(Cl)cc3Cl)C(=O)NC2=O)c2ccccc21 measured="> 10 µM"
record_smiles=CC(=O)O[C@@H]1[C@@H](OC(C)=O)[C@@H](O)[C@H](Oc2c(-c3ccc(O)cc3)oc3cc(O)cc(O)c3c2=O)O[C@H]1C measured="> 10 µM"

Let us move to another entry and its IC50.
Provide IC50, tested on RVH-421, for CN(c1ncccc1CNc1nc(Nc2ccc3c(c2)CC(=O)N3)ncc1C(F)(F)F)S(C)(=O)=O .
> 2.56 µM

----------
system: RD; assay: cells; assay type: functional, cell-based, Homo sapiens; conditions: Homo sapiens, RD
Description: SANGER: Inhibition of human RD cell growth in a cell viability assay.
pIC50: −log10 of the molar value.
For each entry below, report its pIC50 value.

# example entries with known answers
compound=Cc1ccc(Nc2nccc(N(C)c3ccc4c(C)n(C)nc4c3)n2)cc1S(N)(=O)=O reported_endpoint=pIC50 measured="< 5.10"
compound=C=CCc1cccc(/C=N/NC(=O)CN2CCN(Cc3ccccc3)CC2)c1O reported_endpoint=pIC50 measured="< 5.59"
compound=O=C1N=C(NCc2cccs2)S/C1=C\c1ccc2ncccc2c1 reported_endpoint=pIC50 measured="< 5.30"
compound="CN(Cc1cnc2nc(N)nc(N)c2n1)c1ccc(C(=O)N[C@@H](CCC(=O)O)C(=O)O)cc1 [METHOTREXATE]" reported_endpoint=pIC50 measured="< 6.70"
compound=CCOc1nc(NC(=O)Cc2cc(OC)ccc2OC)cc(N)c1C#N reported_endpoint=pIC50 measured="< 5.00"

Query compound follows.
Please give the documented pIC50 of COc1ccc(C2=N[C@@H](c3ccc(Cl)cc3)[C@@H](c3ccc(Cl)cc3)N2C(=O)N2CCNC(=O)C2)c(OC(C)C)c1
< 5.10
